Max Inhibition Observed (agr-GFP reporter, wild-type strain) reference
molecular target: L. monocytogenes AgrC (Listeria monocytogenes (EGD-e)); assay: cell-based or functional assay
Bridges are numbered along the chain shown (N, C = ends). Where no end group is shown, it is not given here. [ ]: non-standard residue; d: D form.
Provide the reading as a plain figure in %.

These solved cases illustrate the format of a correct answer.
>  <binder>
KKCFMFV (bridge 3-C; also: thiolactone: Cys3 side chain to C-terminal carboxyl) [7-mer A2K]

>  <quantitative_result>
51.8

$$$$
>  <binder>
KA[dC]F[dM]FV (bridge 3-C; also: thiolactone: dCys3 side chain to C-terminal carboxyl) [7-mer C3dC/M5dM]

>  <quantitative_result>
88.9

$$$$
>  <binder>
KA[dC]FMFV (bridge 3-C; also: thiolactone: dCys3 side chain to C-terminal carboxyl) [7-mer C3dC]

>  <quantitative_result>
49.3

$$$$

binder KACF[dM]FV (bridge 3-C; also: thiolactone: Cys3 side chain to C-terminal carboxyl) [7-mer M5dM] , Max Inhibition Observed (agr-GFP reporter, wild-type strain) observed: 18.5

Data origin, for the record: patent US12116424
